Origin of values: paper PMC2248166

target: HLA B*1501 (Homo sapiens, UniProt P01889, A329T/A93T/A95T/C349S/D201E/D98Y/E187L/E204Q/E69M/E70A/K202T/N87E/Q94N/R155S/R180W/S121R/S35A/S48A/V306I/V36M/Y140S/Y91S); test: biochemical
Where a SMILES comes first, the peptide text is derived from it.
value kind: pIC50
Scale: negative log10 of molar concentration, which is what pIC50 denotes.

What does the record list as pIC50 for CC(C)C[C@H](NC(=O)[C@H](CS)NC(=O)[C@H](CCCCN)NC(=O)[C@H](CCCCN)NC(=O)[C@H](Cc1ccccc1)NC(=O)[C@H](CO)NC(=O)[C@@H](N)Cc1ccccc1)C(=O)N[C@H](C(=O)N[C@@H](Cc1ccc(O)cc1)C(=O)O)C(C)C [3102.0925] (H-FSFKKCLVY-OH) ?
8.33

What does the record list as pIC50 for CC[C@H](C)[C@H](NC(=O)[C@@H]1CCCN1C(=O)[C@H](CC(C)C)NC(=O)[C@H](Cc1ccccc1)NC(=O)[C@H](CO)NC(=O)[C@H](CCSC)NC(=O)[C@H](CCCCN)NC(=O)[C@H](CO)NC(=O)[C@@H](N)CCC(=O)O)C(=O)O [3102.0979] (H-ESKMSFLPI-OH) ?
6.45

What does the record list as pIC50 for CC(C)C[C@H](NC(=O)[C@H](CC(C)C)NC(=O)[C@@H](N)Cc1ccccc1)C(=O)N[C@@H](CO)C(=O)N[C@@H](CC(C)C)C(=O)N[C@H](C(=O)N[C@@H](CCC(=O)O)C(=O)N[C@@H](Cc1ccccc1)C(=O)N[C@@H](Cc1ccccc1)C(=O)O)C(C)C [3102.1008] (H-FLLSLVEFF-OH) ?
9.09

What does the record list as pIC50 for CC(C)C[C@H](NC(=O)[C@@H](NC(=O)[C@H](CO)NC(=O)[C@H](CCCCN)NC(=O)[C@@H](NC(=O)[C@@H](N)Cc1c[nH]cn1)C(C)C)[C@@H](C)O)C(=O)N[C@@H](CC(N)=O)C(=O)N[C@@H](CC(N)=O)C(=O)N[C@@H](C)C(=O)O [3102.0217] (H-HVKSTLNNA-OH) ?
6.44

What does the record list as pIC50 for CC[C@H](C)[C@H](NC(=O)[C@H](CO)NC(=O)[C@@H](N)CCCNC(=N)N)C(=O)N[C@@H](CO)C(=O)N[C@@H](CCCNC(=N)N)C(=O)N[C@H](C(=O)N[C@@H](CCC(=O)O)C(=O)N[C@@H](CC(N)=O)C(=O)N[C@@H](Cc1ccccc1)C(=O)O)[C@@H](C)O [3102.0929] (H-RSISRTENF-OH) ?
8.32

What does the record list as pIC50 for CC[C@H](C)[C@H](NC(=O)[C@H](CO)NC(=O)[C@@H](NC(=O)[C@H](CS)NC(=O)[C@@H](NC(=O)[C@H](CO)NC(=O)[C@H](CCCNC(=N)N)NC(=O)[C@H](CCSC)NC(=O)[C@@H](N)CC(C)C)[C@@H](C)CC)C(C)C)C(=O)O [3102.0838] (H-LMRSICVSI-OH) ?
7.20

What does the record list as pIC50 for CC[C@H](C)[C@H](NC(=O)[C@@H](N)CO)C(=O)N[C@@H](CS)C(=O)N[C@@H](CO)C(=O)N[C@@H](CCCCN)C(=O)N[C@@H](CO)C(=O)N[C@@H](CC(N)=O)C(=O)N1CCC[C@H]1C(=O)N[C@@H](Cc1ccccc1)C(=O)O [3102.0855] (H-SICSKSNPF-OH) ?
7.41

What does the record list as pIC50 for CSCC[C@H](NC(=O)[C@@H](NC(=O)[C@@H](N)CCCCN)[C@@H](C)O)C(=O)N[C@@H](C)C(=O)N[C@H](C(=O)N[C@H](C(=O)N[C@@H](Cc1ccc(O)cc1)C(=O)N[C@@H](CCC(=O)O)C(=O)N[C@@H](CC(C)C)C(=O)O)[C@@H](C)O)C(C)C [3102.0293] (H-KTMAVTYEL-OH) ?
8.26

What does the record list as pIC50 for CC[C@H](C)[C@H](NC(=O)[C@H](CO)NC(=O)[C@@H](N)CC(C)C)C(=O)N[C@@H](Cc1ccccc1)C(=O)N[C@@H](Cc1ccccc1)C(=O)N[C@H](C(=O)N[C@H](C(=O)N[C@H](C(=O)N[C@@H](C)C(=O)O)C(C)C)C(C)C)[C@@H](C)CC [3102.1004] (H-LSIFFIVVA-OH) ?
7.09

What does the record list as pIC50 for CSCC[C@H](NC(=O)[C@H](CO)NC(=O)[C@H](CS)NC(=O)[C@H](CO)NC(=O)[C@@H](NC(=O)[C@@H](N)CCCCN)C(C)C)C(=O)N[C@@H](CC(C)C)C(=O)N[C@@H](CCC(=O)O)C(=O)N[C@@H](Cc1ccccc1)C(=O)O [3102.1010] (H-KVSCSMLEF-OH) ?
9.08

What does the record list as pIC50 for CC[C@H](C)[C@H](NC(=O)[C@H](CO)NC(=O)[C@H](C)N)C(=O)N[C@H](C(=O)N[C@@H](C)C(=O)N[C@@H](Cc1ccccc1)C(=O)N[C@@H](CCCCN)C(=O)N[C@@H](CO)C(=O)N[C@@H](CCSC)C(=O)O)[C@@H](C)O [3102.0999] (H-ASITAFKSM-OH) ?
7.60

What does the record list as pIC50 for CC[C@H](C)[C@H](NC(=O)[C@H](Cc1c[nH]cn1)NC(=O)[C@H](CO)NC(=O)[C@@H](NC(=O)[C@@H](NC(=O)[C@H](Cc1ccc(O)cc1)NC(=O)[C@H](C)NC(=O)[C@H](CCSC)NC(=O)[C@@H](N)Cc1ccccc1)[C@@H](C)O)[C@@H](C)O)C(=O)O [3102.1071] (H-FMAYTTSHI-OH) ?
6.88

What does the record list as pIC50 for CSCC[C@H](NC(=O)[C@@H](N)C(C)C)C(=O)N[C@H](C(=O)N[C@@H](CCCCN)C(=O)N[C@@H](Cc1c[nH]c2ccccc12)C(=O)N[C@@H](CS)C(=O)N[C@@H](C)C(=O)N1CCC[C@H]1C(=O)N[C@@H](Cc1ccccc1)C(=O)O)[C@@H](C)O [3102.0886] (H-VMTKWCAPF-OH) ?
8.72

What does the record list as pIC50 for CC(C)C[C@H](NC(=O)[C@H](CO)NC(=O)[C@@H]1CCCN1C(=O)[C@H](CO)NC(=O)[C@H](Cc1ccccc1)NC(=O)[C@H](CO)NC(=O)[C@@H](N)C(C)C)C(=O)N[C@H](C(=O)N[C@@H](Cc1ccccc1)C(=O)O)[C@@H](C)O [3102.1333] (H-VSFSPSLTF-OH) ?
8.89
